Recorded values, source patent US12378249B2.

Biological target: HPK1 (Homo sapiens (Human), UniProt Q92918, S171E/T165E)
Sequence (Q92918 whole entry T165E/S171E): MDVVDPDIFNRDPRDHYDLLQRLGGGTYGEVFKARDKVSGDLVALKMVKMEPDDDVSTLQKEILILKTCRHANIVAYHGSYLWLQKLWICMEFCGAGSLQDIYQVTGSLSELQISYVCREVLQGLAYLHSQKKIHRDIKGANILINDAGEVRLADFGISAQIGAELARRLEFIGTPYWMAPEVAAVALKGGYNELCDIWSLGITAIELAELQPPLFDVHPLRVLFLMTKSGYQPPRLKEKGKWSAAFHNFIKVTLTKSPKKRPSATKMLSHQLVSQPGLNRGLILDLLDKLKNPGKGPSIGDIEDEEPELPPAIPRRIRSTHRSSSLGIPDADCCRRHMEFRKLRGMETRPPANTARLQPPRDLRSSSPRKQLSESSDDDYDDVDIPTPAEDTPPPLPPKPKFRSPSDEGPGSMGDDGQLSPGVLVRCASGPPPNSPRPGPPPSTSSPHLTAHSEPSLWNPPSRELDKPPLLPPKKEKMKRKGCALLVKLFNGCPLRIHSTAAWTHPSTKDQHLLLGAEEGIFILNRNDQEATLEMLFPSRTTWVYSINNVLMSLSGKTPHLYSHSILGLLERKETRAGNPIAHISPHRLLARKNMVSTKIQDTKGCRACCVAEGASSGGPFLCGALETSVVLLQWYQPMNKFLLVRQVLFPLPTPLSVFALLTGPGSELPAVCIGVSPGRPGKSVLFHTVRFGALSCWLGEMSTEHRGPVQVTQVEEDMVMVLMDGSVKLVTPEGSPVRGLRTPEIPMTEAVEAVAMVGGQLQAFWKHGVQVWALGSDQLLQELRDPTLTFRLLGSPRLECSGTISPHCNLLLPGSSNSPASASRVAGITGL
Assay: HPK1-FL HTRF Enzymatic Assay (HTRF)
Type: biochemical
Details: HPK full length T165E S171E 0.125 nM, ATP 1 mM, Biotin-SLP76 100 nM, read-out: HPK1 Ki (nM), H = HTRF
Consider the following compounds; for each one, report its Ki.
Answers are plain numbers, in nM.

I would be grateful if you could provide Ki for each of the following entries.
1. Cc1c(-c2cc(F)c3cnc(Nc4cc5n(n4)CC(=O)N(C)CC5)cc3c2)cnc2c1NCC[C@@]2(C)O (single isomer, unassigned) [Compound 231a]
2. CNC1CCN(c2cc(C)c(-c3cc4cc(Nc5cc6n(n5)CC(=O)N(C)CC6)ncc4cc3F)cn2)CC1
3. Cc1c(N)cncc1-c1cc2cc(Nc3cc4n(n3)CC(=O)NCC4)ncc2cc1F

[1.3, 5, 0.062]

// input: 4 compounds below; output: Ki for each
1. Cc1cc(C2CCCCO2)ncc1-c1cc2cc(Nc3cc4n(n3)CC(=O)N(C)CC4)ncc2cc1F (racemic)
2. Cc1cc(N2CCNCC2)ncc1-c1cc2cc(Nc3cc4n(n3)CC(=O)N(C)CC4)ncc2cc1F
3. Cc1c(NS(C)(=O)=O)cncc1-c1cc2cc(Nc3cc4n(n3)CC(=O)N(C)CC4)ncc2cc1F
4. Cc1c(-c2cc3cc(Nc4cc5n(n4)CC(=O)N(C(C)C)CC5O)ncc3cc2F)cnc2c1NCCO2 (single isomer, unassigned) [Compound 141b]

9
4.2
0.46
0.018
